System: C. albicans GDH2346
ASSAY DETAILS: Candida IC50, vegetative cells, by OD600 and fluorescence
Assay type: cell-based
ASSAY SETUP: Candida albicans, GDH2346; vegetative cells; read-out: IC50 Candida, Vegetative
PROPERTY NAME: IC50 (µg/mL)
Dear colleague, please return just the value in µg/mL, with no unit written.

1) NCCCOc1cc(OCCCN)cc(-c2ccc3c(c2)c2cc(-c4cc(OCCCN)cc(OCCCN)c4)ccc2n3CCCN)c1 : 1.44

Record NCCSc1cc(SCCN)c(C(F)(F)F)cc1NC(=O)c1cc(C(=O)Nc2cc(C(F)(F)F)c(SCCN)cc2SCCN)ncn1 / C. albicans GDH2346, IC50 recorded as 4.93

Sample NCCCOc1cccc(-n2cc(-c3ccc4ccc(-c5cn(-c6cccc(OCCCN)c6)nn5)cc4c3)nn2)c1 , system: C. albicans GDH2346. Its IC50 is 4.1

Query N=C(N)N1CCN(c2ccc(-c3cc(-c4ccc(N5CCN(C(=N)N)CC5)cc4)ncn3)cc2)CC1 on C. albicans GDH2346; IC50 returned: 4.24

GET /values?item= NCCCOc1cc(-c2cn(-c3cc(OCCCN)cc(OCCCN)c3)nn2)cc(-c2cn(-c3cc(OCCCN)cc(OCCCN)c3)nn2)c1 &system= C. albicans GDH2346 returns IC50: 1.89
